src = patent US20140163050A1

- assay: C-7 plasma pharmacokinetics after single oral administration
- Format: in vivo, human
- cond: human, plasma, po, 50 mg, plasma; single oral 50 mg, Cohort I, n = 6; geometric mean [% CV geo mean]; read-out: Cmax
quantity: Cmax (ng/mL)
All answers are understood in ng/mL, so give the number only.

I am curious: what Cmax value has been reported for CC(C)c1cc2[nH]c(=O)n(NS(C)(=O)=O)c(=O)c2cc1-c1ccnn1C ?
1990

====

- assay: C-7 plasma pharmacokinetics after single oral administration
- Format: in vivo, human
- cond: human, plasma, po, 15 mg, plasma; single oral 15 mg, Cohort III, n = 3; median (min-max); read-out: Tmax
quantity: Tmax (h)
All answers are understood in h, so give the number only.

What value of measured Tmax is listed for CC(C)c1cc2[nH]c(=O)n(NS(C)(=O)=O)c(=O)c2cc1-c1ccnn1C [Compound C-7] ?
2.98
